System: Mus musculus
assay-remarks: Analgesic activity was determined for inhibition of phenyl-p-quinone-induced writhing (PQW) after subcutaneous administration in mice
Assay type: functional
condition-set: sc

compound | ED50
CNCCSC1Cc2ccccc2Sc2ccccc21 (stereo not drawn) | 4.2 mg/kg
CNCCSC1Cc2ccccc2Sc2ccc(F)cc21 (stereo not drawn) | 2.9 mg/kg
CNCCSC1=Cc2ccccc2Sc2ccc(F)cc21 | 8.9 mg/kg
CNCCSC1Cc2ccccc2Sc2ccc(Cl)cc21 (stereo not drawn) | 4.4 mg/kg
CN(C)CCSC1=Cc2ccccc2Sc2ccc(Cl)cc21 | 14.6 mg/kg
CC(C)=CCN1CC[C@]2(C)c3cc(O)ccc3C[C@H]1[C@H]2C [(+)-PENTAZOCINE] | 2.4 mg/kg
CN(C)CCSC1Cc2ccccc2Sc2ccccc21 (stereo not drawn) | 3.3 mg/kg
CNCCSC1=Cc2ccccc2Sc2ccc(O)cc21 | > 10 mg/kg
CN(C)CCSC1Cc2ccccc2Sc2ccc(Cl)cc21 (stereo not drawn) | > 10 mg/kg
CN(C)CCSC1=Cc2ccccc2Sc2ccc(F)cc21 | > 10 mg/kg
CN(C)CCCN1c2ccccc2CCc2ccccc21 | 10.7 mg/kg
CNCCSC1=Cc2ccccc2Sc2ccc(Cl)cc21 | 12.5 mg/kg
CN(C)CCSC1Cc2ccccc2Sc2ccc(F)cc21 (stereo not drawn) | 9 mg/kg

// provenance: ChEMBL document CHEMBL1122185
